Hey, just so you know, these numbers are from paper PMC10370593.

I'd be grateful if you could share measured Knockdown percentage, Erk2 for these entries.
# Tested on: Erk2 gene
# Protocol: Gene silencing by real-time PCR
# Assay type: cell-based, human
# Conditions: 72 h, MDA-MB-231, MR50, RT-PCR, mean ± SEM of three
Give a bare numeral; the unit % is implied.

Which Knockdown percentage, Erk2 is listed for FAM-γAbu-Arg- Lys-N^ε(1-Pyrenebutyryl)-Arg-Sar-Arg-Gly-Arg- Lys-N^ε(1-Pyrenebutyryl)-Arg-Sar-Arg-NH2 [AB17] ?
75.8

Next entry: FAM-γAbu-Arg-C^α-Octylgly-Arg-Sar-Arg-Gly-Arg-Lys-N^ε(1-Adamantyl)-Arg-Sar-Arg-NH2 [AB29]
59.8

Next entry: c[-Arg-^DHis-Arg-^DHis-Arg-Lys{Lys(linoleyl)2}-Arg-^DHis-Arg-^DHis-Arg-Glu-]-Lys(FAM)-NH2 (head to tail) [Peptide 6, reference compound]
71.6

Next entry: FAM-^γAbu-Arg- Lys-N^ε(stearyl)-Arg-Sar-Arg-Gpn-Arg- Lys-N^ε(stearyl)-Arg-Sar-Arg-NH2 [AB32]
60.3

Next entry: FAM-γAbu-Arg- C^α-Octylgly -Arg-Sar-Arg-Gly-Arg- Lys-N^ε(D-alpha-Tocopherol succinyl)-Arg-Sar-Arg-NH2 [AB18]
85.9
